test system: S. aureus HIP12864, NR-46074; assay: MIC assay; format: cell-based, Staphylococcus aureus; conditions: S. aureus HIP12864, NR-46074 VISA
Catalogue of MIC values
Recorded metric: MIC (µg/mL)

Line notation	Target under test	Output unit	Result modifier	Result value
CN[C@H](CC(C)C)C(=O)N[C@H]1C(=O)N[C@@H](CC(N)=O)C(=O)N[C@H]2C(=O)N[C@H]3C(=O)N[C@H](C(=O)N[C@H](C(=O)O)c4cc(O)cc(O)c4-c4cc3ccc4O)[C@H](O)c3ccc(c(Cl)c3)Oc3cc2cc(c3O[C@@H]2O[C@H](CO)[C@@H](O)[C@H](O)[C@H]2O[C@H]2C[C@](C)(NCc3ccc(N=C(N)NCC45CC6CC(CC(C6)C4)C5)cc3)[C@H](O)[C@H](C)O2)Oc2ccc(cc2Cl)[C@H]1O	S. aureus HIP12864, NR-46074	µg/mL	≤	0.016
CCCCCCN(CCCCCC)C(N)=Nc1ccc(CN[C@@]2(C)C[C@H](O[C@H]3[C@H](Oc4c5cc6cc4Oc4ccc(cc4Cl)[C@@H](O)[C@@H](NC(=O)[C@@H](CC(C)C)NC)C(=O)N[C@@H](CC(N)=O)C(=O)N[C@H]6C(=O)N[C@H]4C(=O)N[C@H](C(=O)N[C@H](C(=O)O)c6cc(O)cc(O)c6-c6cc4ccc6O)[C@H](O)c4ccc(c(Cl)c4)O5)O[C@H](CO)[C@@H](O)[C@@H]3O)O[C@@H](C)[C@H]2O)cc1	S. aureus HIP12864, NR-46074	µg/mL	=	0.063
CCCCCCCCNC(N)=Nc1ccc(CN[C@@]2(C)C[C@H](O[C@H]3[C@H](Oc4c5cc6cc4Oc4ccc(cc4Cl)[C@@H](O)[C@@H](NC(=O)[C@@H](CC(C)C)NC)C(=O)N[C@@H](CC(N)=O)C(=O)N[C@H]6C(=O)N[C@H]4C(=O)N[C@H](C(=O)N[C@H](C(=O)O)c6cc(O)cc(O)c6-c6cc4ccc6O)[C@H](O)c4ccc(c(Cl)c4)O5)O[C@H](CO)[C@@H](O)[C@@H]3O)O[C@@H](C)[C@H]2O)cc1	S. aureus HIP12864, NR-46074	µg/mL	≤	0.008
CCCCCCCCCCCCNC(N)=Nc1ccc(CN[C@@]2(C)C[C@H](O[C@H]3[C@H](Oc4c5cc6cc4Oc4ccc(cc4Cl)[C@@H](O)[C@@H](NC(=O)[C@@H](CC(C)C)NC)C(=O)N[C@@H](CC(N)=O)C(=O)N[C@H]6C(=O)N[C@H]4C(=O)N[C@H](C(=O)N[C@H](C(=O)O)c6cc(O)cc(O)c6-c6cc4ccc6O)[C@H](O)c4ccc(c(Cl)c4)O5)O[C@H](CO)[C@@H](O)[C@@H]3O)O[C@@H](C)[C@H]2O)cc1	S. aureus HIP12864, NR-46074	µg/mL	=	0.25

----------
Each entry below carries its recorded MIC.
system: E. faecium E0506; experiment: MIC assay; type: cell-based, Enterococcus faecium; settings: E. faecium E0506, VanA

Line notation	MIC, µg/mL
CCCCCCCNC(N)=Nc1ccc(CN[C@@]2(C)C[C@H](O[C@H]3[C@H](Oc4c5cc6cc4Oc4ccc(cc4Cl)[C@@H](O)[C@@H](NC(=O)[C@@H](CC(C)C)NC)C(=O)N[C@@H](CC(N)=O)C(=O)N[C@H]6C(=O)N[C@H]4C(=O)N[C@H](C(=O)N[C@H](C(=O)O)c6cc(O)cc(O)c6-c6cc4ccc6O)[C@H](O)c4ccc(c(Cl)c4)O5)O[C@H](CO)[C@@H](O)[C@@H]3O)O[C@@H](C)[C@H]2O)cc1	2
CCCCCCCCCNC(N)=Nc1ccc(CN[C@@]2(C)C[C@H](O[C@H]3[C@H](Oc4c5cc6cc4Oc4ccc(cc4Cl)[C@@H](O)[C@@H](NC(=O)[C@@H](CC(C)C)NC)C(=O)N[C@@H](CC(N)=O)C(=O)N[C@H]6C(=O)N[C@H]4C(=O)N[C@H](C(=O)N[C@H](C(=O)O)c6cc(O)cc(O)c6-c6cc4ccc6O)[C@H](O)c4ccc(c(Cl)c4)O5)O[C@H](CO)[C@@H](O)[C@@H]3O)O[C@@H](C)[C@H]2O)cc1	0.5
CCCCCCCCNC(N)=Nc1ccc(CN[C@@]2(C)C[C@H](O[C@H]3[C@H](Oc4c5cc6cc4Oc4ccc(cc4Cl)[C@@H](O)[C@@H](NC(=O)[C@@H](CC(C)C)NC)C(=O)N[C@@H](CC(N)=O)C(=O)N[C@H]6C(=O)N[C@H]4C(=O)N[C@H](C(=O)N[C@H](C(=O)O)c6cc(O)cc(O)c6-c6cc4ccc6O)[C@H](O)c4ccc(c(Cl)c4)O5)O[C@H](CO)[C@@H](O)[C@@H]3O)O[C@@H](C)[C@H]2O)cc1	2
CCCCCCN(CCCCCC)C(N)=Nc1ccc(CN[C@@]2(C)C[C@H](O[C@H]3[C@H](Oc4c5cc6cc4Oc4ccc(cc4Cl)[C@@H](O)[C@@H](NC(=O)[C@@H](CC(C)C)NC)C(=O)N[C@@H](CC(N)=O)C(=O)N[C@H]6C(=O)N[C@H]4C(=O)N[C@H](C(=O)N[C@H](C(=O)O)c6cc(O)cc(O)c6-c6cc4ccc6O)[C@H](O)c4ccc(c(Cl)c4)O5)O[C@H](CO)[C@@H](O)[C@@H]3O)O[C@@H](C)[C@H]2O)cc1	1
